- Run description: activity coefficient (dimensionless); of the first substance listed, at infinite dilution; xn = mol fraction of the nth substance listed
- Particulars: 343.15 K; Liquid; Chromatography; x1 = 0
Label rule, in plain words: activity coefficient of 1 and up is y, under 1 is n.

| Molecule | Discrete label |
| --- | --- |
| CCO [ethanol] + CCCOC[n+]1ccn(C)c1.F[B-](F)(F)F | y |
| CCc1ccccc1 [ethylbenzene] + CCCOC[n+]1ccc(N(C)C)cc1.O=S(=O)([N-]S(=O)(=O)C(F)(F)F)C(F)(F)F | y |
| CCCCCCCC [octane] + CCCOC[n+]1ccn(C)c1.F[B-](F)(F)F | y |
| Cc1ccccc1C [1,2-dimethylbenzene] + CCCCCCCCn1cc[n+](COCCCOC[n+]2ccn(CCCCCCCC)c2C)c1C.O=S(=O)([N-]S(=O)(=O)C(F)(F)F)C(F)(F)F.O=S(=O)([N-]S(=O)(=O)C(F)(F)F)C(F)(F)F | n |
| CCc1ccccc1 [ethylbenzene] + CCCOC[n+]1ccn(C)c1.N#C[N-]C#N | y |
| CCc1ccccc1 [ethylbenzene] + CN(C)c1cc[n+](COCCCOC[n+]2ccc(N(C)C)cc2)cc1.O=S(=O)([N-]S(=O)(=O)C(F)(F)F)C(F)(F)F.O=S(=O)([N-]S(=O)(=O)C(F)(F)F)C(F)(F)F | y |
| Cc1ccc(C)cc1 [1,4-dimethylbenzene] + CN(C)c1cc[n+](COCCCOC[n+]2ccc(N(C)C)cc2)cc1.O=S(=O)([N-]S(=O)(=O)C(F)(F)F)C(F)(F)F.O=S(=O)([N-]S(=O)(=O)C(F)(F)F)C(F)(F)F | y |
| CCCCCC [hexane] + CCCCCCCCn1cc[n+](COCCC)c1C.N#C[N-]C#N | y |
| CCC(=O)CC [pentan-3-one] + CCCOC[n+]1ccn(C)c1.N#C[N-]C#N | y |
| Cc1ccc(C)cc1 [1,4-dimethylbenzene] + CCCCCCCCn1cc[n+](COCCC)c1C.N#C[N-]C#N | y |
| C1CCCCCC1 [cycloheptane] + Cn1cc[n+](COCCCOC[n+]2ccn(C)c2)c1.O=S(=O)([N-]S(=O)(=O)C(F)(F)F)C(F)(F)F.O=S(=O)([N-]S(=O)(=O)C(F)(F)F)C(F)(F)F | y |
| ClC(Cl)Cl [trichloromethane] + CCCCCCCCn1cc[n+](COCCCOC[n+]2ccn(CCCCCCCC)c2C)c1C.N#C[N-]C#N.N#C[N-]C#N | n |
| C1CCCCC1 [cyclohexane] + CCCCCCCCn1cc[n+](COCCC)c1C.N#C[N-]C#N | y |
| C[N+](=O)[O-] [nitromethane] + CCCCCCCCn1cc[n+](COCCCOC[n+]2ccn(CCCCCCCC)c2C)c1C.O=S(=O)([N-]S(=O)(=O)C(F)(F)F)C(F)(F)F.O=S(=O)([N-]S(=O)(=O)C(F)(F)F)C(F)(F)F | n |
| ClC(Cl)(Cl)Cl [tetrachloromethane] + CCCOC[n+]1ccn(C)c1.N#C[N-]C#N | y |
| CC(C)CO [2-methyl-1-propanol] + N#C[N-]C#N.N#C[N-]C#N.c1ccc(Cn2cc[n+](COCCCOC[n+]3ccn(Cc4ccccc4)c3)c2)cc1 | y |
| c1ccsc1 [thiophene] + CCCCCCCCn1cc[n+](COCCC)c1C.O=S(=O)([N-]S(=O)(=O)C(F)(F)F)C(F)(F)F | n |
| CCC(=O)CC [pentan-3-one] + CCCOC[n+]1ccn(Cc2ccccc2)c1.O=S(=O)([N-]S(=O)(=O)C(F)(F)F)C(F)(F)F | n |
| Cc1ccccc1C [1,2-dimethylbenzene] + CCCCCCCCn1cc[n+](COCCCOC[n+]2ccn(CCCCCCCC)c2C)c1C.N#C[N-]C#N.N#C[N-]C#N | y |
| CCC[N+](=O)[O-] [1-nitropropane] + CN(C)c1cc[n+](COCCCOC[n+]2ccc(N(C)C)cc2)cc1.O=S(=O)([N-]S(=O)(=O)C(F)(F)F)C(F)(F)F.O=S(=O)([N-]S(=O)(=O)C(F)(F)F)C(F)(F)F | n |
| c1ccncc1 [pyridine] + CCCCCCCCn1cc[n+](COCCCOC[n+]2ccn(CCCCCCCC)c2C)c1C.N#C[N-]C#N.N#C[N-]C#N | n |
| CCCO [propan-1-ol] + CCCCCCCCn1cc[n+](COCCC)c1C.N#C[N-]C#N | n |
| C1CCCCCC1 [cycloheptane] + CCCCCCCCn1cc[n+](COCCCOC[n+]2ccn(CCCCCCCC)c2C)c1C.O=S(=O)([N-]S(=O)(=O)C(F)(F)F)C(F)(F)F.O=S(=O)([N-]S(=O)(=O)C(F)(F)F)C(F)(F)F | y |
| CO [methanol] + CCCOC[n+]1ccn(Cc2ccccc2)c1.F[B-](F)(F)F | n |

---

- Run description: activity coefficient (dimensionless); of the first substance listed, at infinite dilution; xn = mol fraction of the nth substance listed
- Particulars: 343.15 K; Liquid; Chromatography; x1 = 0
Rule: measured activity coefficient below 10 gets t; anything equal to or greater than 10 gets f.

| Molecule | Discrete label |
| --- | --- |
| Cc1cccc(C)c1 [1,3-dimethylbenzene] + CCCOC[n+]1ccn(C)c1.O=S(=O)([N-]S(=O)(=O)C(F)(F)F)C(F)(F)F | t |
| C#CCCCCC [1-heptyne] + N#C[N-]C#N.N#C[N-]C#N.c1ccc(Cn2cc[n+](COCCCOC[n+]3ccn(Cc4ccccc4)c3)c2)cc1 | f |
| ClC(Cl)Cl [trichloromethane] + CCCOC[n+]1ccn(Cc2ccccc2)c1.F[B-](F)(F)F | t |
| C#CCCCC [1-hexyne] + CCCOC[n+]1ccn(C)c1.F[B-](F)(F)F | t |
| CC1CCCCC1 [methylcyclohexane] + CCCOC[n+]1ccn(C)c1.F[B-](F)(F)F | f |
| C=CCCCC [hex-1-ene] + CCCOC[n+]1ccc(N(C)C)cc1.O=S(=O)([N-]S(=O)(=O)C(F)(F)F)C(F)(F)F | t |
| Cc1ccc(C)cc1 [1,4-dimethylbenzene] + CCCOC[n+]1ccn(Cc2ccccc2)c1.F[B-](F)(F)F | t |

---

- Run description: activity coefficient (dimensionless); of the first substance listed, at infinite dilution; xn = mol fraction of the nth substance listed
- Particulars: 333.15 K; Liquid; Chromatography; x1 = 0
Quantity: activity coefficient

| Compound | Result number |
| --- | --- |
| CCCCCCCCCCCCC [tridecane] + CCCOC[n+]1ccn(C)c1.O=S(=O)([N-]S(=O)(=O)C(F)(F)F)C(F)(F)F | 165 |
| CCCC(C)=O [pentan-2-one] + CCCCCCCCn1cc[n+](COCCC)c1C.N#C[N-]C#N | 0.96 |
| CCCCCCCCC [nonane] + CCCCCCCCn1cc[n+](COCCCOC[n+]2ccn(CCCCCCCC)c2C)c1C.O=S(=O)([N-]S(=O)(=O)C(F)(F)F)C(F)(F)F.O=S(=O)([N-]S(=O)(=O)C(F)(F)F)C(F)(F)F | 7.45 |
| CCCCCCCC [octane] + CCCOC[n+]1ccn(C)c1.F[B-](F)(F)F | 213 |
| c1ccsc1 [thiophene] + CCCOC[n+]1ccn(C)c1.O=S(=O)([N-]S(=O)(=O)C(F)(F)F)C(F)(F)F | 1.05 |
| ClCCl [dichloromethane] + Cn1cc[n+](COCCCOC[n+]2ccn(C)c2)c1.O=S(=O)([N-]S(=O)(=O)C(F)(F)F)C(F)(F)F.O=S(=O)([N-]S(=O)(=O)C(F)(F)F)C(F)(F)F | 0.61 |

---

Examples of molecules with documented activity coefficient follow.
- Run description: activity coefficient (dimensionless); of the first substance listed, at infinite dilution; xn = mol fraction of the nth substance listed
- Particulars: 343.15 K; Liquid; Chromatography; x1 = 0
Quantity: activity coefficient

| Molecule | Quantity | Result number |
| --- | --- | --- |
| CCO [ethanol] + Cn1cc[n+](COCCCOC[n+]2ccn(C)c2)c1.O=S(=O)([N-]S(=O)(=O)C(F)(F)F)C(F)(F)F.O=S(=O)([N-]S(=O)(=O)C(F)(F)F)C(F)(F)F | activity coefficient | 0.89 |
| CC(C)CO [2-methyl-1-propanol] + CCCOC[n+]1ccn(C)c1.F[B-](F)(F)F | activity coefficient | 3.56 |
| c1ccncc1 [pyridine] + CCCOC[n+]1ccc(N(C)C)cc1.O=S(=O)([N-]S(=O)(=O)C(F)(F)F)C(F)(F)F | activity coefficient | 0.46 |
| c1ccncc1 [pyridine] + CCCCCCCCn1cc[n+](COCCC)c1C.O=S(=O)([N-]S(=O)(=O)C(F)(F)F)C(F)(F)F | activity coefficient | 0.3 |
| C[N+](=O)[O-] [nitromethane] + CCCOC[n+]1ccn(Cc2ccccc2)c1.O=S(=O)([N-]S(=O)(=O)C(F)(F)F)C(F)(F)F | activity coefficient | 0.4 |
| CC#N [acetonitrile] + CCCOC[n+]1ccn(Cc2ccccc2)c1.O=S(=O)([N-]S(=O)(=O)C(F)(F)F)C(F)(F)F | activity coefficient | 0.34 |
| CC1CCCCC1 [methylcyclohexane] + CCCOC[n+]1ccc(N(C)C)cc1.O=S(=O)([N-]S(=O)(=O)C(F)(F)F)C(F)(F)F | activity coefficient | 7.79 |
| CCCCCCCCCCC [undecane] + CCCOC[n+]1ccn(Cc2ccccc2)c1.O=S(=O)([N-]S(=O)(=O)C(F)(F)F)C(F)(F)F | activity coefficient | 27.7 |
| CCCCCCCCCCCC [dodecane] + Cn1cc[n+](COCCCOC[n+]2ccn(C)c2)c1.N#C[N-]C#N.N#C[N-]C#N | activity coefficient | 932 |
| C1COCCO1 [1,4-dioxane] + CN(C)c1cc[n+](COCCCOC[n+]2ccc(N(C)C)cc2)cc1.O=S(=O)([N-]S(=O)(=O)C(F)(F)F)C(F)(F)F.O=S(=O)([N-]S(=O)(=O)C(F)(F)F)C(F)(F)F | activity coefficient | 0.45 |
| C1COCCO1 [1,4-dioxane] + CCCOC[n+]1ccc(N(C)C)cc1.O=S(=O)([N-]S(=O)(=O)C(F)(F)F)C(F)(F)F | activity coefficient | 0.59 |
| Cc1ccccc1C [1,2-dimethylbenzene] + CCCOC[n+]1ccn(C)c1.N#C[N-]C#N | activity coefficient | 5.22 |
| CCCCCCCCCCC [undecane] + Cn1cc[n+](COCCCOC[n+]2ccn(C)c2)c1.N#C[N-]C#N.N#C[N-]C#N | activity coefficient | 797 |

Measured values drawn from the NIST ThermoML archive (doi:10.1016/j.fluid.2014.11.020) for this set.
